# system.under.test: human ether-à-go-go-related gene (hERG) potassium channel (human);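 note: peak tail current of the secondary pulse compared with the same well before compound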
# Sequence (Q12809 whole entry, looked up): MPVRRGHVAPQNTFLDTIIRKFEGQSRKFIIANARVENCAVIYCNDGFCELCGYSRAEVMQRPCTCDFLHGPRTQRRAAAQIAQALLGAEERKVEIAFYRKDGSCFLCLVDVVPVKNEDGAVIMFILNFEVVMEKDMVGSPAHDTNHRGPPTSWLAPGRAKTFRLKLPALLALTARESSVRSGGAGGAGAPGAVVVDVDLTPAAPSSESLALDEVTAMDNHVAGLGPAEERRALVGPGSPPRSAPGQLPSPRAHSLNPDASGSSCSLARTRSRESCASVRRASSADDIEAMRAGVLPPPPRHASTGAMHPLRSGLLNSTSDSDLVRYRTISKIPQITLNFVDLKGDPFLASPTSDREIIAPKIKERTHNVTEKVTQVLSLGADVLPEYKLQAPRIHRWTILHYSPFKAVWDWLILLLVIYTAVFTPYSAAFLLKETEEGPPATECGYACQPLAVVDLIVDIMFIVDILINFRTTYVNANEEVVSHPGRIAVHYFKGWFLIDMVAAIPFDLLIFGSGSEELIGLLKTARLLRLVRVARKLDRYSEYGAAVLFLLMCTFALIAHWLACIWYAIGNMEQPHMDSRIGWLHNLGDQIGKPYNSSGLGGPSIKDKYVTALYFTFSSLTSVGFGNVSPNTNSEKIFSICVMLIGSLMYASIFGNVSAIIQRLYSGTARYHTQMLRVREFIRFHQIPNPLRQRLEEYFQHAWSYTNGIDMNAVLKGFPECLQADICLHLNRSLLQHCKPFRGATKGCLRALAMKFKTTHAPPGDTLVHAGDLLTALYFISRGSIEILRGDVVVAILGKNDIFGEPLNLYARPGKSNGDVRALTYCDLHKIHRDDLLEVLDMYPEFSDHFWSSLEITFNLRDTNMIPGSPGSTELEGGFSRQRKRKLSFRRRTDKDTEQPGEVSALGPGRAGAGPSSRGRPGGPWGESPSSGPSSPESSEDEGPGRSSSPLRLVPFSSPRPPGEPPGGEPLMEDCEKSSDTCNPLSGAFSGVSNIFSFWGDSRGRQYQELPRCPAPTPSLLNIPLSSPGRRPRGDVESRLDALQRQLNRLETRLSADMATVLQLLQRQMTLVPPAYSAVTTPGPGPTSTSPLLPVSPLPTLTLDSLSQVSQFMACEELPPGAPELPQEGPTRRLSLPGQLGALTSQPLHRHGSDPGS
# assay.explanation: primary screen, population patch clamp on CHO cells stably expressing hERG; higher = less effect of the substance
In all, about 310,000 compounds went through this assay and about 14,000 (4.5%) showed an effect of 50% or more. Effects have a minus sign here. Only a selection was taken, and strong results are over-represented in it overall.
Binary classification by hERG current change (%, negative = inhibition) at 10uM, with -10% as an inclusive lower bound for Fulfilled; all other cases are Not fulfilled.

stdin: Item CC(=O)OCCN(Cc1ccccc1)Cc1ccc2c(c1)OCO2 with hERG current change (%, negative = inhibition) at 10uM of -10% or above?
stdout: Not fulfilled

***
stdin: Check the entry COC(=O)c1[nH]c2ccc(C)cc2c1NC(=O)CN1CCN(c2ccccc2)CC1 : does hERG current change (%, negative = inhibition) at 10uM equal or exceed -10%?
stdout: Not fulfilled

stdin: For CC(C)(O[C@@H]1O[C@H](CO)[C@@H](O)[C@H](O)[C@H]1O)[C@@H]1CC=C(C(=O)O)CC1 then?
stdout: Fulfilled

stdin: // same read-out, input: O=c1cc(N2CCCCC2)c(-c2ccccc2)nn1Cc1ccc(Cl)cc1
stdout: Fulfilled
